- Test system: HOP-62 NSCLC
- protocol.summary: NCI tumour cell line growth inhibition, 48 h
The entries below come with measured TGI values attached.
Quick reminder: number only, in µM, skip the unit.

Fill in: TGI on HOP-62 NSCLC, entry COc1ccc(C2C(C#N)=C(N)Oc3c2sc2c(Br)cccc32)cc1 (stereo not given)
17.5

Further cases:
Write down measured TGI (HOP-62 NSCLC) for this compound. CC1=C(C(=O)Nc2ccc(F)c(Cl)c2)C(c2cccc(Oc3ccccc3)c2)NC(=S)N1 (stereo not given)
30.1

---

In this section, each of the compounds is paired with its reported TGI.
- System: SK-MEL-5 melanoma
- protocol.summary: NCI tumour cell line growth inhibition, 48 h
Numeric answer only, unit µM assumed.

Recorded TGI, per entry:
Return the recorded TGI value; entry: Oc1ccc(C(O)(c2ccccc2)c2ccccc2)c2ccccc12
14.6

Read off the recorded TGI for CCN(CC)c1ccc(-c2cc(-c3cc(OC)c(OC)c(OC)c3)nc(N3CCC(O)CC3)c2C#N)cc1
0.365

Others:
For the compound CC/C(Cl)=N\OC(=O)Nc1ccc(OC)c(C)c1 , give its reported TGI.
39.1
